All values here come from the kinase profiling compilation of Christmann-Franck et al. (2016).

# subject.of.test: UniProt P52564
# Sequence (P52564 whole entry, looked up): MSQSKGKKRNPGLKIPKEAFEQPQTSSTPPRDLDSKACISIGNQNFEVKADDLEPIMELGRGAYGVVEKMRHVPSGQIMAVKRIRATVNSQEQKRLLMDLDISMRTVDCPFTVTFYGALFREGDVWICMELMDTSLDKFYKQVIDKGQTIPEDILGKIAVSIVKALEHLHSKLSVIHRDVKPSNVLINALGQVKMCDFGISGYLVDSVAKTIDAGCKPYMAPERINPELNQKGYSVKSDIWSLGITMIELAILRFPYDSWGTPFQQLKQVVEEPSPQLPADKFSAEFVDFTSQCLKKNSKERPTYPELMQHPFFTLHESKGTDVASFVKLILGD
# method.description: radiometric filter-binding kinase assay
# conditions.used: compound 100.0 µM; ATP 50 µM
readout.name: inhibition (%)
Please state the figure in %; there is no need to write the unit.

Record `CC(C)(C)Nc1c(C2CC2)nc2[nH]cnn12` ; system UniProt P52564; inhibition = 3

Let me check: `CC(C)(C)Nc1c(COCc2ccccc2)nc2[nH]cnn12` , system UniProt P52564, measured inhibition is 1

For `O=c1c(NC(=S)NCc2ccccc2)cnc2[nH]ccn12` on UniProt P52564, measured inhibition was 0

Query `O=C(c1cccc(-c2cc3c(=O)[nH]cnc3s2)c1)N1CCOCC1` on UniProt P52564; inhibition returned: 2

With UniProt P52564 as the test system, `Nc1nc2cnc(-c3ccccc3)cn2n1` showed inhibition of 3

# lookup: `O=C(Nc1cnc2[nH]cnn2c1=O)c1ccccc1` on UniProt P52564, inhibition = 3

Value (inhibition, UniProt P52564) for record CC1CN(c2nc3ccccn3c(=O)c2N)CC(C)O1 (stereo not given) = 1

Form: item `COc1ccc(NC(=S)Nc2cnc3[nH]cnn3c2=O)cn1` ; test system UniProt P52564; inhibition: 0

The reported UniProt P52564 inhibition of `CC(=O)Nc1nc2cnc(-c3ccccc3)cn2n1` is 0

So the reported inhibition for `Cc1cccc(C)c1-c1cn2nc(N)nc2cn1` , on UniProt P52564, turned out to be 8

Field inhibition (system: UniProt P52564) for entry `COc1ccc(-c2cc3c(=O)[nH]cnc3s2)cc1OC` = 18

Record `O=c1cc(-c2ccccc2F)nc2[nH]ccn12` / UniProt P52564, inhibition recorded as 0

`O=C(Nc1cnc2[nH]ccn2c1=O)c1ccccc1` tested on UniProt P52564 gave inhibition: 0

The recorded inhibition with UniProt P52564 for `CC(=O)Nc1nc2cnc(-c3c(C)cccc3C)cn2n1` was 0

Recorded inhibition for `Nc1cnc2c(-c3c(F)cccc3F)cccn2c1=O` on UniProt P52564 was 10

----------
# subject.of.test: UniProtKB O14757
# Sequence (O14757 whole entry, looked up): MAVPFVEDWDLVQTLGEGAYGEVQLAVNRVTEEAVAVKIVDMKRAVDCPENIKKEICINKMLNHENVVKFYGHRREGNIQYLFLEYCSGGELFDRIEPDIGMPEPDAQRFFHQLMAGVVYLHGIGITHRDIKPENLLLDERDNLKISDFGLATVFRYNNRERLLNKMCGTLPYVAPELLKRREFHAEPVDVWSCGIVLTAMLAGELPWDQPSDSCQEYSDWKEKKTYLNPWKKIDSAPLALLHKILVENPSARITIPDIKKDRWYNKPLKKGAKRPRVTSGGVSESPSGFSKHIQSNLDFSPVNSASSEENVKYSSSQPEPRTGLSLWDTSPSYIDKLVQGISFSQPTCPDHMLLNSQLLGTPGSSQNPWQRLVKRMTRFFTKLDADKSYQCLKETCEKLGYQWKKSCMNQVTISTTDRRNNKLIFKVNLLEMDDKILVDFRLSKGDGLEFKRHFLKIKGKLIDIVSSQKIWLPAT
# method.description: radiometric filter-binding kinase assay
# conditions.used: compound 100.0 µM; ATP 20 µM
Hi there, I'd appreciate the recorded inhibition for every entry that follows.
Report as a plain number; the unit % is understood.

For reference, reported inhibition for `Cc1cccc(C)c1-c1cn2nc(N)nc2cn1` stands at 9

Notebook: `COc1ccc(NC(=S)Nc2cnc3[nH]cnn3c2=O)cn1` , inhibition read as 0

Reported inhibition ( `COc1ccc(-c2cc3c(=O)[nH]cnc3s2)cc1OC` ) = 0

Looking up `CC(=O)Nc1nc2cnc(-c3ccccc3)cn2n1` , I see its inhibition listed as 18

// sample `Nc1nc2cnc(-c3ccccc3)cn2n1` , its inhibition was 45

Item: `CC(=O)Nc1nc2cnc(-c3c(C)cccc3C)cn2n1` | inhibition: 0

Form: molecule = `O=C(c1cccc(-c2cc3c(=O)[nH]cnc3s2)c1)N1CCOCC1` ; inhibition = 0

Input `O=C(Nc1cnc2[nH]ccn2c1=O)c1ccccc1` . Output inhibition: 2

What the record says about `O=c1c(NC(=S)NCc2ccccc2)cnc2[nH]ccn12` : inhibition is 0

Lab note: CC1CN(c2nc3ccccn3c(=O)c2N)CC(C)O1 (configuration not stated) gave inhibition of 0

The reported inhibition of the molecule `O=C(Nc1cnc2[nH]cnn2c1=O)c1ccccc1` was 0

For this molecule ( `CC(C)(C)Nc1c(C2CC2)nc2[nH]cnn12` ), measured inhibition is 0
